# EXPERIMENTAL_SYSTEM: UniProtKB O14746
# Sequence (O14746 whole entry): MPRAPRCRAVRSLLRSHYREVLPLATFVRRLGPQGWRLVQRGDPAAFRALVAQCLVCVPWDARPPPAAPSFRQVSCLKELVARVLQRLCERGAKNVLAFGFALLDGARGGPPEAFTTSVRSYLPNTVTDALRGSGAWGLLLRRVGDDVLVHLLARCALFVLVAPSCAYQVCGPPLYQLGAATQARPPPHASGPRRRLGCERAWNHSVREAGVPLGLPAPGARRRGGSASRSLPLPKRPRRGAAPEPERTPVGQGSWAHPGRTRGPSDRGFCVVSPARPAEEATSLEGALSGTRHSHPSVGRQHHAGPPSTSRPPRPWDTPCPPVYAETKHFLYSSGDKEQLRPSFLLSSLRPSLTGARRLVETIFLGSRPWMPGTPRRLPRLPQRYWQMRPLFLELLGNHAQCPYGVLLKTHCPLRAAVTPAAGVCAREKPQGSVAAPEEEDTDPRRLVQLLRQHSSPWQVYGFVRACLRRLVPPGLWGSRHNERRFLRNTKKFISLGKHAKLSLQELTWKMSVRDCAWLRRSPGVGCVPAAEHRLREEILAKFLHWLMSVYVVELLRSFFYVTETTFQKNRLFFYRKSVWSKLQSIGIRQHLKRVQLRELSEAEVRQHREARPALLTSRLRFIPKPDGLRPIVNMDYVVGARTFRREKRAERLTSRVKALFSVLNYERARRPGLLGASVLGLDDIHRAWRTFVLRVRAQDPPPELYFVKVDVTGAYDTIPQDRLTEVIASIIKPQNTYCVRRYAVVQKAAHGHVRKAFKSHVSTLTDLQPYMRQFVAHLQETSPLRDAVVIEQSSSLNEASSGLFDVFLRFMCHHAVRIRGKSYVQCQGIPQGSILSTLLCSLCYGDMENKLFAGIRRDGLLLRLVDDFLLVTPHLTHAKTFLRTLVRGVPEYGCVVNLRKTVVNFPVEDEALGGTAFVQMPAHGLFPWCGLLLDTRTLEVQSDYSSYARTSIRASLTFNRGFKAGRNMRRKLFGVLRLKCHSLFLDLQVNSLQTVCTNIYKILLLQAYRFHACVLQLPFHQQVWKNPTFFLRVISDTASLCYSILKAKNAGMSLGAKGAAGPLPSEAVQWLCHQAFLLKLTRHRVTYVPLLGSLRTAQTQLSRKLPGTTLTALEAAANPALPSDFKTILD
# ASSAY_TEXT: Inhibitory activity against telomerase extracted from HCT 116 cell lines
PARAMETER_MEASURED: IC50

*Q* Would you kindly share the measured IC50 for N[C@H](Cc1c[nH]c2ccccc12)C(=O)NCCCCCCOP(=O)(O)Oc1ccccc1Cl ?
*A* > 100 µM

*Q* Would you kindly share the measured IC50 for N[C@@H](Cc1ccccc1)C(=O)N[C@H](Cc1c[nH]c2ccccc12)C(=O)NCCCCCCCCCCCCOP(=O)(O)Oc1ccccc1Cl (mixture of isomers) ?
*A* > 100 µM

*Q* Would you kindly share the measured IC50 for N[C@@H](Cc1cc2ccccc2[nH]1)C(=O)N[C@H](Cc1c[nH]c2ccccc12)C(=O)NCCCC(=O)NCC(=O)NCCCCCCOP(=O)(O)Oc1ccccc1Cl ?
*A* > 100 µM

Each recorded value in this set is attributed to ChEMBL document CHEMBL1133972.
